# Experimental target: Paired box protein Pax-6 (Homo sapiens) (UniProt P26367)
# Sequence (P26367 whole entry, looked up): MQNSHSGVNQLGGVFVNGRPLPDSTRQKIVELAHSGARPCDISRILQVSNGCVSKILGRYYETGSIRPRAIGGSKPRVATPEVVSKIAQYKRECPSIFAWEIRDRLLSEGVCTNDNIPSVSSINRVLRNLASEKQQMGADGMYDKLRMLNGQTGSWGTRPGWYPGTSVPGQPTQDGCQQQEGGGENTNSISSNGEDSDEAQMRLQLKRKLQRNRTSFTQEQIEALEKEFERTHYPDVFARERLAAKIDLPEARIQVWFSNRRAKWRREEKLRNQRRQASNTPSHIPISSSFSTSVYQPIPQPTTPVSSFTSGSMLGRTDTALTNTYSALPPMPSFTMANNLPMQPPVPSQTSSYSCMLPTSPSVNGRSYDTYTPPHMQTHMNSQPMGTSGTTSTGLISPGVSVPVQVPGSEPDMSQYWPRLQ
# Experiment summary: ATG_Pax6_CIS: Attagene CIS-FACTORIAL HepG2 Assay for human Paired Box 6 (PAX6) (AID 2282956)
# Assay context: HepG2 CIS-FACTORIAL PAX6 reporter transcription, RNA readout; actives raise or lower the signal
Activity calls are given as the source filed them. Rule for the calls: active = hit-call score of the fitted dose curve at least 0.9, where 1 is the maximum; inactive = score below 0.9.
Recorded metric: outcome

NC(N)=NC(N)=NCCc1ccccc1    inactive
CC1=C(C=O)C(C)(C)CCC1    inactive
OCC=Cc1ccccc1    inactive
CCOC(=O)CC1(C)OCC(C)O1 (stereo unspecified)    inactive
Nc1cc([N+](=O)[O-])ccc1C(=O)O    inactive

stdin: Field: outcome (Paired box protein Pax-6 (Homo sapiens) (UniProt P26367)). Entry: `O=C1OC2(c3ccc(O)cc3Oc3cc(O)ccc32)c2ccccc21`
stdout: inactive

stdin: Field: outcome (Paired box protein Pax-6 (Homo sapiens) (UniProt P26367)). Entry: CC1=CC(O)CC(C)(C)C1 (stereo unspecified)
stdout: inactive

stdin: Field: outcome (Paired box protein Pax-6 (Homo sapiens) (UniProt P26367)). Entry: `CCO[Si](CCC#N)(OCC)OCC`
stdout: inactive

stdin: Field: outcome (Paired box protein Pax-6 (Homo sapiens) (UniProt P26367)). Entry: `C[N+](C)(C)CCO`
stdout: inactive

stdin: Field: outcome (Paired box protein Pax-6 (Homo sapiens) (UniProt P26367)). Entry: `CCCO`
stdout: inactive

stdin: Field: outcome (Paired box protein Pax-6 (Homo sapiens) (UniProt P26367)). Entry: `CC(C)(CO)CO`
stdout: inactive

* * *

# Experimental target: Oxysterols receptor LXR-beta (Homo sapiens) (UniProt P55055)
# Sequence (P55055 whole entry, looked up): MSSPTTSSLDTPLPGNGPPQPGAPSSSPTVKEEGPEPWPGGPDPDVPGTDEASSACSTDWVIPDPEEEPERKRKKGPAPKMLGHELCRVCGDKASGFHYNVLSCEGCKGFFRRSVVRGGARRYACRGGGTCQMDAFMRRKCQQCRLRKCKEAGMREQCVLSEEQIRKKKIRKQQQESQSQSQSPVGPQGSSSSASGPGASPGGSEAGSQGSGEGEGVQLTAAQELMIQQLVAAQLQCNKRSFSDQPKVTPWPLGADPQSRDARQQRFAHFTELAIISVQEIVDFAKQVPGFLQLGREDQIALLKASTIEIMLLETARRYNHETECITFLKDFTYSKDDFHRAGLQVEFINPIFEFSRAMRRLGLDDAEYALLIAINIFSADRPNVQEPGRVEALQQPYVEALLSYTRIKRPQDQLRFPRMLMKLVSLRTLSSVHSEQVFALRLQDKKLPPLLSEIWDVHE
# Experiment summary: ATG_LXRb_TRANS: Attagene TRANS-FACTORIAL HepG2 Assay for human Liver X Receptor beta (LXRb) (AID 2282981)
# Assay context: HepG2 Attagene TRANS GAL4-LXRb reporter, mRNA
Results filed as inconclusive are left out. Active and inactive are the calls of the source. The calls were made as follows: active = hit-call score of the fitted dose curve at least 0.9, where 1 is the maximum; inconclusive = response in the unintended direction; inactive = score below 0.9.
Recorded metric: outcome

Record excerpt, results attached:
CCCCCCCCCCCCCCCCCC(=O)OCCCCCCCCCCCCCC(C)C    inactive
CCCCOCCOC(=O)c1ccccc1C(=O)OCCOCCCC    inactive
O=c1cc(-c2ccc(O)cc2)oc2cc(O)cc(O)c12    inactive
CC(C)OB(OC(C)C)OC(C)C    inactive
CCCCCCCCCO    inactive
C[N+](C)(C)CCO    inactive
CCCCCCOc1ccc(O)cc1    inactive
CCCCOCCOCCOCCO    inactive
O=C1CCCCCCCCCCCC(=O)OCCO1    inactive
CCC(C)COC(=O)CC(C)C (centres undefined)    inactive

stdin: Given the entry CCCCCC1C(=O)CCC1CC(=O)OC (centres undefined) , report its measured outcome.
stdout: inactive

stdin: Given the entry `CCOC(=O)CC(C)C` , report its measured outcome.
stdout: inactive

* * *

# Read-out: Intercellular Adhesion Molecule 1 (ICAM1), ICAM1 (gene 3383)
# Experiment summary: BSK_KF3CT_ICAM1: BioMAP Diversity Plus: KF3CT Assay for Intercellular Adhesion Molecule 1 (ICAM1) Biomarker Activity (AID 2283067)
# Assay context: primary human keratinocytes with fibroblasts; actives raise or lower the signal
Calls of active or inactive are those of the source. The calls were made as follows: active = hit-call score of the fitted dose curve at least 0.9, where 1 is the maximum; inactive = score below 0.9.
Form entry, call: pick from active, inactive

Worked cases, answers included:
CC(C)CCCC(C)(C)O    inactive
CC(=O)c1ccc(C)cc1    inactive
c1ccc(Sc2ccccc2)cc1    inactive
O=C(O)C(F)(F)OC(F)(F)C(F)(F)OC(F)(F)C(F)(F)C(F)(F)C(F)(F)F    inactive
Nc1ccc(N)c([N+](=O)[O-])c1    inactive
CCn1cc(C(=O)O)c(=O)c2ccc(C)nc21    inactive
c1ccc(OCCOc2ccccc2)cc1    inactive
C=C(C)C(N)=O    inactive
NC(=O)c1c(Cl)cccc1Cl    inactive
CC(=O)OCC=C(C)CCC=C(C)CCC=C(C)C    inactive

stdin: What did the test return for `CC(C)(CO)CO` ?
stdout: inactive

stdin: What did the test return for CCCCCCCC1CCCC1=O (stereo not drawn) ?
stdout: active

stdin: What did the test return for `C=C(F)C(=O)OC(C(F)(F)F)C(F)(F)F` ?
stdout: inactive

stdin: What did the test return for `CCCCCCCCCC(=O)OCC` ?
stdout: inactive

stdin: What did the test return for `c1ccc2c(c1)-c1ccc3ccc4cccc5cc-2c1c3c45` ?
stdout: inactive

stdin: What did the test return for `CC1(C)[C@H](C=C(Cl)Cl)[C@H]1C(=O)OCc1cccc(Oc2ccccc2)c1` ?
stdout: inactive
